Listed binders paired with reported Trimeric HA Binding: RLU
Subject of test: recombinant soluble homotrimeric HA of A/California/4/09 (H1N1) (Influenza A virus A/California/04/2009(H1N1))
Assay name: trimeric HA microarray, transfection supernatant set 3
Condition: remark: other sources report otherwise
Endpoint label: Trimeric HA Binding: RLU (RLU)

{"Binder": "TCN-530 (5248_H10a) (antibody, V domains shown) VH: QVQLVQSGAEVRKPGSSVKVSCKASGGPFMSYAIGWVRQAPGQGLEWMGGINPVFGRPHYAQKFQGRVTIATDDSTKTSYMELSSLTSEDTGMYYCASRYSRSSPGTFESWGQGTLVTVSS VL: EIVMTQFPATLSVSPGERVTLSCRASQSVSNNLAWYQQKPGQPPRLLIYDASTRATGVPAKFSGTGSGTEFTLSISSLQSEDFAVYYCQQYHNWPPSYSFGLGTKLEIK", "Endpoint label": "Trimeric HA Binding: RLU", "Observed": 21200}
{"Binder": "TCN-523 (5248_A17) (antibody, V domains shown) VH: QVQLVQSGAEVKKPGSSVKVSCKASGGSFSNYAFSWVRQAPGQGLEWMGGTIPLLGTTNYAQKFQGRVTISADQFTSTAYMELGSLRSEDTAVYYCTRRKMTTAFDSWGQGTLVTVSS VL: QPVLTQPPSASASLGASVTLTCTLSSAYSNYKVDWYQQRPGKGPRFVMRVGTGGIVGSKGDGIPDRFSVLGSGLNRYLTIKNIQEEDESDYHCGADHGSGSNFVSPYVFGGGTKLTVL", "Endpoint label": "Trimeric HA Binding: RLU", "Observed": 19400}
{"Binder": "TCN-529 (5297_H01) (antibody, V domains shown) VH: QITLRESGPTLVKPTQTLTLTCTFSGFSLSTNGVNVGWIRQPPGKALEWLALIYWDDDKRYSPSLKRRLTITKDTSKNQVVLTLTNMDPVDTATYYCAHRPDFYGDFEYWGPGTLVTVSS VL: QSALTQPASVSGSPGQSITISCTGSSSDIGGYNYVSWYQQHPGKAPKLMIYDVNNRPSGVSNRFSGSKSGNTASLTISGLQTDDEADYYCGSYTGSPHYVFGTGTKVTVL", "Endpoint label": "Trimeric HA Binding: RLU", "Observed": 735}
